Record form. Attribute: EC50. Fill in for each entry.
# target_or_test_system: Short transient receptor potential channel 4 (Mus musculus, UniProt Q9QUQ5)
# Sequence (Q9QUQ5 whole entry): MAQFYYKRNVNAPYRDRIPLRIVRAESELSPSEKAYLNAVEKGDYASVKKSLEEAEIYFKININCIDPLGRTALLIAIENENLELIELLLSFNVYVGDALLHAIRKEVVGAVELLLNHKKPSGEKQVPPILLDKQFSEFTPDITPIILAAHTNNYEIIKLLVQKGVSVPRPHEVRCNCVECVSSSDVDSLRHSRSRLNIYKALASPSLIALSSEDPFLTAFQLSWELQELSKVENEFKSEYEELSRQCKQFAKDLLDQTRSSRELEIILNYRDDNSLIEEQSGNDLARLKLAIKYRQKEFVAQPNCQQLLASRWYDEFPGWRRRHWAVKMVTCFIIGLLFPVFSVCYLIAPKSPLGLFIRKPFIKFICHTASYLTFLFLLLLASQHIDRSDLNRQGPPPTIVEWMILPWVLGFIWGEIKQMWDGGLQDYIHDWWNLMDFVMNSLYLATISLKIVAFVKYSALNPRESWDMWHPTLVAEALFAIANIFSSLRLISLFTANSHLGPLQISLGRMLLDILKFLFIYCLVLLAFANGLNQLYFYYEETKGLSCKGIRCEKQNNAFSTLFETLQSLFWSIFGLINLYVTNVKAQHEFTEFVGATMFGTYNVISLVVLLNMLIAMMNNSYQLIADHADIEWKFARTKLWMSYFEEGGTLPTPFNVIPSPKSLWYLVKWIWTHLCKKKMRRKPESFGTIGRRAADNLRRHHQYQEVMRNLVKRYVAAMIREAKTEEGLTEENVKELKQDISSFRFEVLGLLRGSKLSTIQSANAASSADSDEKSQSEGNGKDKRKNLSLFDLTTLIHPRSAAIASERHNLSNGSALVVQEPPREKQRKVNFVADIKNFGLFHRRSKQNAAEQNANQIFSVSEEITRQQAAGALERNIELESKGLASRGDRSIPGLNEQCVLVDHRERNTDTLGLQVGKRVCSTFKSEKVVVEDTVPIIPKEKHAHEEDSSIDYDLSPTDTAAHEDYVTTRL
# assay_procedure: mouse TRPC4 channel activators, dose response, cell-based, HEK293 TRPC4/mu-opioid, Fluo-4 calcium (AID 434937)
# Assay type: functional
The source made the active and inactive calls. The rule behind the calls is not given here.

input: Enter reported EC50 observed with Short transient receptor potential channel 4 (Mus musculus, UniProt Q9QUQ5) for CCN1C(=O)c2cccc3c(S(=O)(=O)Nc4ccccc4OC)ccc1c23
output: 5.96 µM (active)

input: Same for CCCC(=O)NC(C)C(c1cccs1)N1CCN(c2ccccc2)CC1 (centres undefined)
output: 0.267 µM (active)

input: Subsequent entry: COc1ccc(C(CNC(=O)C(C)c2ccc3cc(OC)ccc3c2)N(C)C)cc1 (centres undefined)
output: 0.473 µM (active)

input: For Cc1occc1C(=O)NNC(=S)NC(=O)COc1ccc(Cl)cc1Cl then?
output: 5.96 µM (active)

----------
This section lists AC50 readings for Cytochrome P450 1A2 (Homo sapiens).

input: Given the entry Cc1ccc(-c2ccc(CCC(=O)O)o2)cc1 , report its measured AC50.
output: 25.1 µM (inconclusive)

input: Same for COc1cccc(Cn2c(=O)c(-c3cn(C)c4ccccc34)nc3cnc(OC)nc32)c1
output: 15.8 µM (inconclusive)

input: Can you check C[C@H](Cc1ccc(O)c(O)c1)[C@@H](C)Cc1ccc(O)c(O)c1 [MASOPROCOL] next?
output: 25.1 µM (inconclusive)

input: Could you do the same for Cc1nnc(O)n1-c1cccc(C(F)(F)F)c1 , please?
output: 5.62 µM (inconclusive)

input: Check O=c1[nH]c2cc([N+](=O)[O-])c([N+](=O)[O-])cc2[nH]c1=O [DNQX] too.
output: 31.6 µM (inconclusive)

input: Try the compound Oc1nc(-c2ccccc2)cc(C(F)(F)F)n1
output: 11.2 µM (inconclusive)

input: Another compound: CC(NC(=O)c1ccc(Cl)cc1)c1nnc(SCc2ccc([N+](=O)[O-])cc2)n1C (configuration not stated)
output: 15.8 µM (inconclusive)

input: Ok, now N=C(N)Nc1nc(CCN2C(=O)c3ccccc3C2=O)cs1
output: 12.6 µM (inconclusive)

input: Same for CCOc1ccc(NC(=O)c2ccc(Br)o2)c([N+](=O)[O-])c1
output: 3.55 µM (inconclusive)

input: Another compound to look at: COc1ccc(N(CC(=O)O)N=O)cc1
output: 0.0251 µM (inconclusive)

input: What would you report for NC(=O)N/N=C\c1ccc([N+](=O)[O-])o1 ?
output: 12.6 µM (inconclusive)

input: Then this compound: CCC(C)(C(=O)NC1CCCC1)N(CC1CCCO1)C(=O)c1ccc2c(c1)OCO2 (configuration not stated)
output: 39.8 µM (inconclusive)

input: Input O=c1c(-c2cccs2)nc2cnc(N3CCOCC3)nc2n1Cc1ccc(F)cc1
output: 20 µM (inconclusive)

input: Try the compound O=C(c1ccc2nc3ccc(Cl)cc3c(=O)n2c1)N1CCOCC1
output: 14.1 µM (inconclusive)

input: Moving on to Cn1cccc1C(=O)N1CCC2(CC1)CN(c1cccc(-c3ccccc3)c1)C2
output: 25.1 µM (inconclusive)

input: Next compound up: O=C1Oc2ccccc2C(=O)/C1=C\N1C(=O)N/C(=C\c2ccccc2O)C1=O
output: 0.316 µM (inconclusive)

input: Can you handle Cn1cc(-c2nc3cnc(Oc4ccccc4)nc3n(C)c2=O)c2ccccc21 next?
output: 12.6 µM (inconclusive)

input: How about COc1ccc([N+](=O)[O-])c2c1CCN2C(=O)CC[C@H](N)C(=O)O ?
output: 31.6 µM (inconclusive)

input: Then what about the compound CCNc1ncc2nc(-c3cccs3)c(=O)n(-c3ccccc3)c2n1 ?
output: 1.58 µM (inconclusive)

input: Lookup CCOc1ccc2nc(O)c(CN(CCc3ccccc3)C(=O)N3CCOCC3)cc2c1
output: 17.8 µM (inconclusive)

input: Could you do the same for CC(C)c1ccc(N2C(=O)CC(Sc3nc4ccccc4o3)C2=O)cc1 (configuration not stated) , please?
output: 5.01 µM (inconclusive)

input: Now the same for COc1ccccc1C1C(C(=O)c2ccccc2)=C(O)C(=O)N1CCO (configuration not stated)
output: 0.794 µM (inconclusive)
